biological target: sLFA-1/ICAM-1 (Homo sapiens, UniProt P05107+P20701); construct: 2.0 ug/ml solution of sLFA-1 or Mac-1 receptor; experiment: sLFA-1/ICAM-1 ELISA (LFA1 Adhesion Assay); type: binding; settings: control compounds; read-out: IC50
Sequence (P20701 26-1090 limits assumed): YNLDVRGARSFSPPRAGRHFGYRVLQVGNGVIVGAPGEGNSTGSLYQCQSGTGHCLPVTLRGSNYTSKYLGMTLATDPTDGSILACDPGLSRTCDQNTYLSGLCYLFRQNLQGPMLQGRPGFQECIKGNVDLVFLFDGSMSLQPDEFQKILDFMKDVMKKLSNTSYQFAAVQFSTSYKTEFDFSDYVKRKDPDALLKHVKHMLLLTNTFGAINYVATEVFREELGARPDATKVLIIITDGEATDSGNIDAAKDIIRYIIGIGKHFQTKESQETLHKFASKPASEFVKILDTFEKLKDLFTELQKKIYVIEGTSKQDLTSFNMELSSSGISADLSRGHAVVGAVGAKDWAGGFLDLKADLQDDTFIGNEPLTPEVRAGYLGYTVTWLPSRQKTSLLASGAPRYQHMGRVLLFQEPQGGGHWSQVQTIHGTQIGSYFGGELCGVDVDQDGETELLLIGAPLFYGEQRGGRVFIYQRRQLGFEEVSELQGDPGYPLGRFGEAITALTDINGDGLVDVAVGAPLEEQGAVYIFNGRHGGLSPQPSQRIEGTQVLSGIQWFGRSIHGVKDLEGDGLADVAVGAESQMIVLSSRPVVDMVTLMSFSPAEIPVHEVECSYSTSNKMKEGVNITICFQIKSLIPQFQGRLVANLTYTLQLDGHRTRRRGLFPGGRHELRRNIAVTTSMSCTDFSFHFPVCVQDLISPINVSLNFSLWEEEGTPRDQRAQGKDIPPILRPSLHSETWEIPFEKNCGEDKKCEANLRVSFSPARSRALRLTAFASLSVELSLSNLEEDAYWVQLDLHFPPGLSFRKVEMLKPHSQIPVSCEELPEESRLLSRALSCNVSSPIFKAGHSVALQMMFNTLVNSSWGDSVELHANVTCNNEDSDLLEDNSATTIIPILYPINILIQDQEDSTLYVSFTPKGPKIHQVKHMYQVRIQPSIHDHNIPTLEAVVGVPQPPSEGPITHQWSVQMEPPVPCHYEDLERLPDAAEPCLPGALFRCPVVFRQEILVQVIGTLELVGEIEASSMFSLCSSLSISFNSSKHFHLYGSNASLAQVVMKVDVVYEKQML
Sequence (P05107 23-700 limits assumed): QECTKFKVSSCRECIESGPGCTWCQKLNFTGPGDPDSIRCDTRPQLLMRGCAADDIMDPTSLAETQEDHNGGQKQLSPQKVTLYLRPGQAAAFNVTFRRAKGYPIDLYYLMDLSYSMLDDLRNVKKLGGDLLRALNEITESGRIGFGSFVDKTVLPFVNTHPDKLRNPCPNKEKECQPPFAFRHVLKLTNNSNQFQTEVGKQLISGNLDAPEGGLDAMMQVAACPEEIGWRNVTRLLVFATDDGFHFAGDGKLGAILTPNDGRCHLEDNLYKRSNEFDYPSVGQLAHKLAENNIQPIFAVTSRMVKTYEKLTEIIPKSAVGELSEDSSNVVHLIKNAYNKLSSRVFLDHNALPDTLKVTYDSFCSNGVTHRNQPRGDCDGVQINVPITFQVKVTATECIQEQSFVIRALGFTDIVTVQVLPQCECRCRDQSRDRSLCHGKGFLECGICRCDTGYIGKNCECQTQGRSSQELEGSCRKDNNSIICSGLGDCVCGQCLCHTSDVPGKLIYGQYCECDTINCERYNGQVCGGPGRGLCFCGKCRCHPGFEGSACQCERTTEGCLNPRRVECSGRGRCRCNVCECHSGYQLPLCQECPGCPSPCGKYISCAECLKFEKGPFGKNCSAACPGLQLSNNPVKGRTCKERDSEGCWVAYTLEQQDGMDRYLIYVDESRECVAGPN
Give measured IC50 for each item. Keep answers brief.

Query :: Could you share which IC50 value was measured for Cc1cc(C(=O)NCc2cccc(Cl)c2)cc(C)c1C(=O)N[C@@H](CNC(=O)c1cccs1)C(=O)O ?
Result :: ~37 nM

Query :: Could you share which IC50 value was measured for O=C(NCc1cccc(O)c1)c1cc(Cl)c(C(=O)N[C@@H](CNC(=O)c2cc(O)cc(O)c2)C(=O)O)c(Cl)c1 ?
Result :: ~11 nM

* * *

biological target: sLFA-1/ICAM-1 (Homo sapiens, UniProt P05107+P20701); construct: 2.0 ug/ml solution of sLFA-1 or Mac-1 receptor; experiment: sLFA-1/ICAM-1 ELISA (LFA1 Adhesion Assay); format: binding; settings: Table 5; read-out: LFA1 Adhesion Assay (IC50 nM)
ASSAY ENDPOINT: IC50 (nM)
// note: answer is a bare numeric in nM

Query :: Could you share which IC50 value was measured for Cc1cc(C(=O)NCc2cccc(Cl)c2)cc(C)c1C(=O)N[C@@H](CNC(=O)c1cccs1)C(=O)O [compound 142] ?
Result :: 74
